molecular target: UniProt P22732; test: competition with ManCou-F uptake in MCF7 cells
Sequence (P22732 whole entry): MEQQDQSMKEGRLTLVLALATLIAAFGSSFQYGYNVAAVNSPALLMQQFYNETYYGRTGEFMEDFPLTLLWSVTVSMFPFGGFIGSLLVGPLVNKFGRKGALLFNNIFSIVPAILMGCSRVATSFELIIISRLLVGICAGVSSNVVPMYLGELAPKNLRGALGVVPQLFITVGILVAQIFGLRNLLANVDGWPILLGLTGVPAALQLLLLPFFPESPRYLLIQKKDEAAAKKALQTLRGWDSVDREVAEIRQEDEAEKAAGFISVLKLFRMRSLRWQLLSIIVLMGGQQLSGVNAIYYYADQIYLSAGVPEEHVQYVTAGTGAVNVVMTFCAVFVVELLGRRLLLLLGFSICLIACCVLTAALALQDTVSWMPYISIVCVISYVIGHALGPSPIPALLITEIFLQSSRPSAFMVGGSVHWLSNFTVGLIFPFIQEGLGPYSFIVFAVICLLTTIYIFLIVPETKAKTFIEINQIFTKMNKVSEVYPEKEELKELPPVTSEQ
pIC50: −log10 of the molar value.
MEASUREMENT_KIND: pIC50

Given item OC[C@H]1OC(O)(CO)[C@@H](O)[C@@H]1O (stereo partly shown) , the value recorded as its pIC50 is ~1.55
